Biological target: recombinant human 15-PGDH (Homo sapiens (Human), UniProt P15428)
Sequence (P15428 whole entry): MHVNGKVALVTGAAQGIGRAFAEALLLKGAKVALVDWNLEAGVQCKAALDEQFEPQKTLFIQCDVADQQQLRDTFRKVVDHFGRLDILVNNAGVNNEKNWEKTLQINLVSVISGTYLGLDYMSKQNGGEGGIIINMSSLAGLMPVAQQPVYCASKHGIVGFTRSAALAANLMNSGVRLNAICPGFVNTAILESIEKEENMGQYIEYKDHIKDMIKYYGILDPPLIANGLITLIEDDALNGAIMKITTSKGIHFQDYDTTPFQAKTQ
Assay: 15-PGDH enzyme inhibition test
Conditions: 4 nM recombinant human 15-PGDH, 30 μM PGE2, 1 mM NAD+, fluorescence 340/440 nm after 60 min
measurement-type: IC50

>  <molecule>
CN1Cc2cc(-c3c(F)ccc4cc(C(=O)N5CCC(F)(F)CC5)ccc34)cnc2C1=O

>  <assay-value>
3 to 10 nM

$$$$
>  <molecule>
O=C(c1ccc2c(-c3ccc4c(c3)CN(CC3(C(F)(F)F)CC3)C4=O)cccc2c1)N1CCC(F)(F)CC1

>  <assay-value>
3 to 10 nM

$$$$
>  <molecule>
C[C@H]1CCCN(C(=O)c2ccc3c(-c4ccc5c(=O)[nH]ccc5c4)cccc3c2)C1

>  <assay-value>
< 3 nM

$$$$
>  <molecule>
Cn1ncc2cc(-c3cccc4cc(C(=O)N5CCC(F)(F)CC5)ccc34)ccc2c1=O

>  <assay-value>
< 3 nM

$$$$
>  <molecule>
O=C(c1ccc2c(-c3ccc4c(=O)[nH]ncc4c3)cccc2c1)N1CCCC2CC21 (stereo not shown)

>  <assay-value>
< 3 nM

$$$$
>  <molecule>
CC1c2cc(-c3cccc4cc(C(=O)N5CCC(F)(F)CC5)ccc34)ccc2C(=O)N1C (stereo not shown)

>  <assay-value>
< 3 nM

$$$$
>  <molecule>
O=C(c1ccc2c(-c3ccc4ncccc4c3)cccc2c1)N1CCC(F)(F)CC1

>  <assay-value>
< 3 nM

$$$$
>  <molecule>
Cc1ccc2cc(C(=O)N3CCC(F)(F)CC3)ccc2c1-c1cnc2c(c1)CN(C)C2=O

>  <assay-value>
3 to 10 nM

$$$$
>  <molecule>
COC(=O)CN1Cc2cc(-c3cccc4cc(C(=O)N5CCC(F)(F)CC5)ccc34)ccc2C1=O

>  <assay-value>
< 3 nM

$$$$
>  <molecule>
CN1Cc2cc(-c3cccc4cc(C(=O)N5CCCCC5)cnc34)ccc2C1=O

>  <assay-value>
< 3 nM

$$$$
>  <molecule>
Cn1ccc2cc(-c3cccc4cc(C(=O)N5CCC(F)(F)CC5)cnc34)ccc2c1=O

>  <assay-value>
< 3 nM

$$$$
>  <molecule>
CN1Cc2cc(-c3cccc4cc(C(=O)N5CCCC(F)(F)C5)ccc34)ccc2C1=O

>  <assay-value>
< 3 nM

$$$$
>  <molecule>
O=C(c1ccc2c(-c3ccc4c(c3)CN(CCO)C4=O)cccc2c1)N1CCC(F)(F)CC1

>  <assay-value>
< 3 nM

$$$$
>  <molecule>
CN1Cc2cc(-c3cccc4cc(C(=O)N5CCCC6CC65)ccc34)cnc2C1=O (stereo not shown)

>  <assay-value>
< 3 nM

$$$$
>  <molecule>
O=C(c1ccc2cc(-c3ccc4c(=O)[nH]ccc4c3)ccc2c1)N1CCC(F)(F)CC1

>  <assay-value>
≥ 10 nM

$$$$
>  <molecule>
O=C(c1ccc2c(N3CCc4c(cc[nH]c4=O)C3)cccc2c1)N1CCCCC1

>  <assay-value>
< 3 nM

$$$$

* * *

Target: recombinant human 15-PGDH (Homo sapiens (Human), UniProt P15428)
Assay: 15-PGDH enzyme inhibition test
Details: 4 nM recombinant human 15-PGDH, 30 μM PGE2, 1 mM NAD+, fluorescence 340/440 nm after 60 min
measurement-type: IC50

>  <compound>
CN1Cc2cc(-c3cccc4cc(C(=O)N5CC6(CCC6)C5)ccc34)cnc2C1=O

>  <target-or-test-system>
recombinant human 15-PGDH (Homo sapiens (Human), UniProt P15428)

>  <measurement-type>
IC50

>  <assay-value>
< 3 nM

$$$$
>  <compound>
O=C(c1ccc2c(N3CCc4ncccc4C3)cccc2c1)N1CCC[C@H](C(F)(F)F)C1

>  <target-or-test-system>
recombinant human 15-PGDH (Homo sapiens (Human), UniProt P15428)

>  <measurement-type>
IC50

>  <assay-value>
< 3 nM

$$$$
>  <compound>
Cn1ncc2cc(-c3cccc4cc(C(=O)N5CCC(F)(F)CC5)cnc34)cnc2c1=O

>  <target-or-test-system>
recombinant human 15-PGDH (Homo sapiens (Human), UniProt P15428)

>  <measurement-type>
IC50

>  <assay-value>
3 to 10 nM

$$$$
>  <compound>
Cn1ccc2cc(-c3cccc4cc(C(=O)N5CCC(F)(F)CC5)cnc34)ncc2c1=O

>  <target-or-test-system>
recombinant human 15-PGDH (Homo sapiens (Human), UniProt P15428)

>  <measurement-type>
IC50

>  <assay-value>
≥ 10 nM

$$$$
>  <compound>
O=C(c1ccc2c(-c3ccc4c(=O)[nH]ncc4c3)cccc2c1)N1CC=CCC1

>  <target-or-test-system>
recombinant human 15-PGDH (Homo sapiens (Human), UniProt P15428)

>  <measurement-type>
IC50

>  <assay-value>
< 3 nM

$$$$
>  <compound>
O=C(c1ccc2c(-c3ccc4c(ccc[n+]4[O-])c3)cccc2c1)N1CCC(F)(F)CC1

>  <target-or-test-system>
recombinant human 15-PGDH (Homo sapiens (Human), UniProt P15428)

>  <measurement-type>
IC50

>  <assay-value>
< 3 nM

$$$$
>  <compound>
Cn1ccc2cc(-c3cccc4cc(C(=O)N5CCC(F)(F)CC5)cnc34)cnc2c1=O

>  <target-or-test-system>
recombinant human 15-PGDH (Homo sapiens (Human), UniProt P15428)

>  <measurement-type>
IC50

>  <assay-value>
3 to 10 nM

$$$$
>  <compound>
Cn1c(=O)[nH]c(=O)c2ccc(-c3cccc4cc(C(=O)N5CCC(F)(F)CC5)ccc34)cc21

>  <target-or-test-system>
recombinant human 15-PGDH (Homo sapiens (Human), UniProt P15428)

>  <measurement-type>
IC50

>  <assay-value>
< 3 nM

$$$$
>  <compound>
O=C(O)c1ccc(-c2cccc3cc(C(=O)N4CCC(F)(F)CC4)ccc23)cc1F

>  <target-or-test-system>
recombinant human 15-PGDH (Homo sapiens (Human), UniProt P15428)

>  <measurement-type>
IC50

>  <assay-value>
< 3 nM

$$$$
>  <compound>
CN1Cc2cc(-c3cccc4cc(C(=O)N5CCC(F)(F)CC5)ccc34)ccc2C1=O

>  <target-or-test-system>
recombinant human 15-PGDH (Homo sapiens (Human), UniProt P15428)

>  <measurement-type>
IC50

>  <assay-value>
< 3 nM

$$$$
>  <compound>
O=C(c1ccc2c(-c3ccn4c(=O)ccnc4c3)cccc2c1)N1CCC(F)(F)CC1

>  <target-or-test-system>
recombinant human 15-PGDH (Homo sapiens (Human), UniProt P15428)

>  <measurement-type>
IC50

>  <assay-value>
< 3 nM

$$$$
>  <compound>
C[C@@H]1CCN(C(=O)c2ccc3c(-c4ccc5c(c4)CN(C)C5=O)cccc3c2)C1

>  <target-or-test-system>
recombinant human 15-PGDH (Homo sapiens (Human), UniProt P15428)

>  <measurement-type>
IC50

>  <assay-value>
< 3 nM

$$$$
>  <compound>
CN1Cc2cc(-c3ccnc4cc(C(=O)N5CCCCC5)ccc34)ccc2C1=O

>  <target-or-test-system>
recombinant human 15-PGDH (Homo sapiens (Human), UniProt P15428)

>  <measurement-type>
IC50

>  <assay-value>
< 3 nM

$$$$
>  <compound>
C[C@@H]1CCN(C(=O)c2ccc3c(N4CCc5ncccc5C4)cccc3c2)C1

>  <target-or-test-system>
recombinant human 15-PGDH (Homo sapiens (Human), UniProt P15428)

>  <measurement-type>
IC50

>  <assay-value>
< 3 nM

$$$$
>  <compound>
O=C(O)c1ncc(-c2cccc3cc(C(=O)N4CCC(F)(F)CC4)ccc23)cn1

>  <target-or-test-system>
recombinant human 15-PGDH (Homo sapiens (Human), UniProt P15428)

>  <measurement-type>
IC50

>  <assay-value>
< 3 nM

$$$$
>  <compound>
C[C@@H]1CCCN(C(=O)c2ccc3c(N4CCc5ncccc5C4)cccc3c2)C1

>  <target-or-test-system>
recombinant human 15-PGDH (Homo sapiens (Human), UniProt P15428)

>  <measurement-type>
IC50

>  <assay-value>
< 3 nM

$$$$
>  <compound>
Cn1nc2n(c1=O)CCN(c1cccc3cc(C(=O)N4CCCC5(CC5)C4)ccc13)C2

>  <target-or-test-system>
recombinant human 15-PGDH (Homo sapiens (Human), UniProt P15428)

>  <measurement-type>
IC50

>  <assay-value>
< 3 nM

$$$$
>  <compound>
COc1nccc2c1CCN(c1cccc3cc(C(=O)N4CCCCC4)ccc13)C2

>  <target-or-test-system>
recombinant human 15-PGDH (Homo sapiens (Human), UniProt P15428)

>  <measurement-type>
IC50

>  <assay-value>
3 to 10 nM

$$$$
>  <compound>
CCN(CC)C(=O)c1ccc2c(-c3cnc4c(c3)CN(C)C4=O)cccc2c1

>  <target-or-test-system>
recombinant human 15-PGDH (Homo sapiens (Human), UniProt P15428)

>  <measurement-type>
IC50

>  <assay-value>
< 3 nM

$$$$
>  <compound>
O=C(c1ccc2c(-c3ccc4c(=O)n(CCO)ncc4c3)cccc2c1)N1CCC(F)(F)CC1

>  <target-or-test-system>
recombinant human 15-PGDH (Homo sapiens (Human), UniProt P15428)

>  <measurement-type>
IC50

>  <assay-value>
< 3 nM

$$$$
>  <compound>
CC1CC2CN(c3cccc4cc(C(=O)N5CCCCC5)ccc34)CCN2C1=O (stereo not shown)

>  <target-or-test-system>
recombinant human 15-PGDH (Homo sapiens (Human), UniProt P15428)

>  <measurement-type>
IC50

>  <assay-value>
3 to 10 nM

$$$$
>  <compound>
Cc1n[nH]c(=O)c2ccc(-c3cccc4cc(C(=O)N5CCC(F)(F)CC5)cnc34)cc12

>  <target-or-test-system>
recombinant human 15-PGDH (Homo sapiens (Human), UniProt P15428)

>  <measurement-type>
IC50

>  <assay-value>
< 3 nM

$$$$
>  <compound>
O=C(c1ccc2c(-c3ccc4c(c3)CN(CC3CC3)C4=O)cccc2c1)N1CCC(F)(F)CC1

>  <target-or-test-system>
recombinant human 15-PGDH (Homo sapiens (Human), UniProt P15428)

>  <measurement-type>
IC50

>  <assay-value>
< 3 nM

$$$$
>  <compound>
Cn1ccc2cc(-c3cccc4cc(C(=O)N5CCC(F)(F)CC5)ccc34)cnc2c1=O

>  <target-or-test-system>
recombinant human 15-PGDH (Homo sapiens (Human), UniProt P15428)

>  <measurement-type>
IC50

>  <assay-value>
< 3 nM

$$$$
>  <compound>
CN1CCC2(CCN(c3cccc4cc(C(=O)N5CCCCC5)ccc34)CC2)C1=O

>  <target-or-test-system>
recombinant human 15-PGDH (Homo sapiens (Human), UniProt P15428)

>  <measurement-type>
IC50

>  <assay-value>
≥ 10 nM

$$$$
